The values you see were collected from patent US20240132603A1.

- Measured Target: T1, cynomolgus monkey CCR8 (cynomolgus monkey, UniProt G7NYJ2 1-355)
- T1 construct: whole, on cells; also called CynoCCR8
- T1 sequence (G7NYJ2 entry or part of it): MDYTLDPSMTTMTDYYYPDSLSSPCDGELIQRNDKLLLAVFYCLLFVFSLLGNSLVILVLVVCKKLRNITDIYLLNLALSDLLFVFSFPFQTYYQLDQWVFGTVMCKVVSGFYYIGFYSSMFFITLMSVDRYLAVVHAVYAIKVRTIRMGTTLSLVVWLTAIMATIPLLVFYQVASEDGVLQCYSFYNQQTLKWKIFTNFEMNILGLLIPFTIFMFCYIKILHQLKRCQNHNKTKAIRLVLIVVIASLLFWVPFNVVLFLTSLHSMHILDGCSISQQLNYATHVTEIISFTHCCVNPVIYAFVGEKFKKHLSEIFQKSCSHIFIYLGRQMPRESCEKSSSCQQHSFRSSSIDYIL
- Experimental Protocol: FACS, CHO-K1-CynoCCR8 cells
- Protocol: Cells overexpressing cynomolgus monkey CCR8, CHO-K1-CynoCCR8, were digested with pancreatin, counted and resuspended to a cell density of 1E6 cells/mL. The cell suspension was added to a 96-well V-bottom plate at 100 μL/well and centrifuged at 300 g for 5 min, and the supernatant was discarded. The anti-CCR8 antibodies provided herein was used as a primary antibody and diluted in a 5-fold gradient with an FACS buffer (DPBS containing 2% FBS) from 200 nM. […]
The following binders are listed with their measured pEC50 values.
Please keep in mind that pEC50 is minus log10 of the molar concentration; only the number is needed.

See these solved cases before continuing.
PR004523 (antibody, human IgG1, kappa, V domains shown, humanized variant of PR004128, IgG1 with DE mutation) VH: EVQLVESGGGLVQPGGSLRLSCAASGFTFNTYAMNWVRQAPGKGLEWVSRIRSKSNNYATYYADSVKDRFTISRDDSKSTLYLQMNSLRAEDTAVYYCVRGKENGNYYAMDFWGQGTTVTVSS VL: DIVMTQSPLSLPVTPGEPASISCRSSKSLLHSNGNTYLYWFLQKPGQSPQLLIYRMSNLASGVPDRFSGSGSGTDFTLKISRVEAEDVGVYYCMQHLEYPLTFGQGTKLEIKR; 8.35
PR004521 (antibody, human IgG1, kappa, V domains shown, humanized variant of PR004128, IgG1 with DE mutation) VH: EVQLVESGGGLVQPGGSLKLSCAASGFTFNTYAMNWVRQASGKGLEWVGRIRSKSNNYATYYADSVKDRFTISRDDSKSTLYLQMNSLKTEDTAVYYCVRGKENGNYYAMDFWGQGTTVTVSS VL: DIVMTQSPLSLPVTPGEPASISCRSSKSLLHSNGKIYLYWFLQKPGQSPQLLIYRMSNLASGVPDRFSGSGSGTDFTLKISRVEAEDVGVYYCMQHLEYPLTFGQGTKLEIKR; 8.21

Consider now this further binder.
Incoming: # get_value(readout='pEC50', item= PR004526 (antibody, human IgG1, kappa, V domains shown, humanized variant of PR004128, IgG1 with DE mutation) VH: EVQLVESGGGLVQPGGSLRLSCAASGFTFNTYAMNWVRQAPGKGLEWVSRIRSKSNNYATYYADSVKDRFTISRDDSKSTLYLQMNSLRAEDTAVYYCVRGKENGNYYAMDFWGQGTTVTVSS VL: DIVMTQSPLSLPVTLGQPASISCRSSKSLLHSNGKIYLYWFQQRPGQSPRLLIYRMSNLASGVPDRFSGSGSGTDFTLKISRVEAEDVGVYYCMQHLEYPLTFGQGTKLEIKR )
Outgoing: 8.40
